tested on: Plasmodium berghei; assay: Luciferase/luciferin-expressing antifolate-resistant parasites were used to infect a culture of HepG2 cells that were pre-incubated with compounds. Infected hepatocytes emit light due to the luciferase reaction. Assay results are presented as the percent inhibition of light emission compared to control. […]; format: functional; conditions: sporozoite, read-out: LUCIFERASE INFECTION ASSAY - IC50
MEASURED_ATTRIBUTE: IC50

Below, 3 compounds whose answers are already recorded.
>>> assay_value("Cc1ccccc1CN1CCN2C(C(=O)NCc3cccc(Cl)c3)=COC2=NC1=O")
"> 10 µM"
>>> assay_value("COc1ccc(NC(=O)C(c2ccccc2)N2CCN(C)CC2)cc1Cl (configuration not stated)")
"> 10 µM"
>>> assay_value("CCOC(=O)C1=C(Nc2ccc(OS(=O)(=O)c3ccc(Cl)cc3)cc2)C(=O)N(C(C)(C)C)C1")
"> 6.69 µM"

// input: 5 compounds below; output: IC50 for each
1. N#Cc1c(CCCNC(=O)/C=C/c2ccc(Cl)c(C(F)(F)F)c2)nn(-c2ccc(F)cc2)c1N
2. CCOc1ccc(C2(O)C(C)N3C(=[N+]2c2ccc(OC)cc2)CCc2ccccc23)cc1 (configuration not stated)
3. COc1cccc(-c2ccnc3n[nH]c(-c4cccc(C(F)(F)F)c4)c23)c1
4. O=C(COC(=O)c1cccnc1Cl)NCCc1ccc(F)cc1
5. CC(=O)Nc1ccc(C(=S)NCCCN2CCCC2=O)cc1

1. > 10 µM
2. > 10 µM
3. > 10 µM
4. > 10 µM
5. > 10 µM

Provide the reported IC50 of each entry below, same order.
1. Cc1ccc(S(=O)(=O)N2CCCCC2)cc1NC(=O)C[N+]12CCN(CC1)CC2
2. Cc1cc(C(=O)Nc2nc3c(C)cccn3c2C(=O)NC2CCCC2)c(C)o1

1: > 10 µM; 2: > 8.67 µM

----------
tested on: Plasmodium berghei; assay: Luciferase/luciferin-expressing antifolate-resistant parasites were used to infect a culture of HepG2 cells that were pre-incubated with compounds. Infected hepatocytes emit light due to the luciferase reaction. Assay results are presented as the percent inhibition of light emission compared to control. […]; format: functional; conditions: sporozoite, read-out: LUCIFERASE INFECTION ASSAY - IC90
MEASURED_ATTRIBUTE: IC90

Below are worked cases with known answers.
>>> assay_value("COCCN1C(=O)N(Cc2cccc(OC)c2)C(=O)C12CCN(C1CCc3ccccc3C1)CC2 (stereo not drawn)")
"> 6.91 µM"
>>> assay_value("CCN(Cc1ccccc1)S(=O)(=O)c1ccc2c(c1)CCCN2C(C)=O")
"> 10 µM"
>>> assay_value("CCN(CCO)c1ccc(NC2=C(NC(C)=O)C(=O)c3ccccc3C2=O)cc1")
"> 10 µM"
>>> assay_value("FC(F)(F)c1nc2ccccc2nc1-n1nccc1-c1ccc(Cl)cc1")
"> 8.81 µM"
>>> assay_value("Cc1ccc(Sc2ccc(NC(=S)NCC3CCCO3)cc2)c(C)c1 (stereo not drawn)")
"> 10 µM"
>>> assay_value("Cc1ccc(CNc2ccc3nnc(C(F)(F)F)n3n2)cc1")
"> 10 µM"
>>> assay_value("CCCCNC(=O)c1c(NCCC)sc(C(=O)c2ccc(OC)cc2)c1N")
"> 10 µM"
>>> assay_value("CCCOc1c(Cl)cc(C(=O)N2CCN(C)c3nc4ccccc4nc32)cc1OCC")
"> 10 µM"

Look up IC90 for the entries below, preserving their order.
1. CC(C)NC(=O)N1CCCC(C(=O)Nc2nc3c(ccc4ccccc43)s2)C1 (stereo not drawn)
2. CCCCSc1scc(-c2ccc(Cl)c(Cl)c2)c1C#N
3. COc1cc(C(=O)NNC(=O)c2nn(-c3ccccc3)cc2O)cc(OC)c1OC

["> 10 µM", "> 9.64 µM", "> 10 µM"]

List IC90 for every entry below, keeping the order given.
1. Cn1c(N)c(C(=O)COC(=O)c2ccccc2NCCC2=CCCCC2)c(=O)n(C)c1=O
2. CCOC(=O)C(NC(=O)c1ccco1)(Nc1ccc(F)c(Cl)c1)C(F)(F)F (stereo not drawn)
3. COC(=O)c1ccc(C(=O)OC)c(N2C(=O)C=CC2=O)c1
4. N#Cc1cc(Cl)ccc1N1C(=O)C=CC1=O

1: > 10 µM; 2: > 8.07 µM; 3: > 11.4 µM; 4: > 14.2 µM

----------
tested on: Plasmodium berghei; assay: Luciferase/luciferin-expressing antifolate-resistant parasites were used to infect a culture of HepG2 cells that were pre-incubated with compounds. Infected hepatocytes emit light due to the luciferase reaction. Assay results are presented as the percent inhibition of light emission compared to control. […]; format: functional; details: sporozoite, read-out: LUCIFERASE INFECTION ASSAY - IC50
MEASURED_ATTRIBUTE: IC50

>>> assay_value("COc1cc(OC)c(C(=O)N2CC=C(c3c[nH]c4ccccc34)CC2)cc1OC")
"> 10 µM"
>>> assay_value("O=C(CSc1nnc(-c2ccncc2)[nH]1)NC1CCCc2ccccc21 (centres undefined)")
"> 10 µM"
>>> assay_value("O=C(c1ccccc1)C(Sc1nnc(Cc2cccs2)n1CCc1ccccc1)c1ccccc1 (centres undefined)")
"> 10 µM"
>>> assay_value("O=C(c1ccc(Sc2ccccc2)c([N+](=O)[O-])c1)N(Cc1ccc2c(c1)OCO2)c1ccc(F)cc1")
"> 6.57 µM"
>>> assay_value("O=C(Cn1cnc2sc(-c3ccccc3)cc2c1=O)Nc1nc(CN2CCCCC2)cs1")
"> 10 µM"
>>> assay_value("COc1ccc(/C=C/C(=O)c2cc(F)c(Cl)cc2Cl)c(OC)c1OC")
"9.74 µM"

For each entry beneath this line, provide reported IC50.
1. CCOC(=O)c1c(CN2C(=O)NC3(CCCc4sccc43)C2=O)nc2ccccc2c1C (centres undefined)
2. Cc1nn(CC(=O)N2c3ccccc3NC(=O)CC2C)c(=O)c(C#N)c1C (centres undefined)
3. CCOc1ccc(NC(=O)CCOc2cccc(C)c2)cc1
4. Cc1[nH]nc2ccnc(-c3cccc(OC(F)(F)F)c3)c12
5. CCCCNC(=O)c1c(NC(=O)c2cccc(OC)c2)nc2ccc(C)cn12
6. COc1ccc(-c2ccc(C=C(C#N)C#N)s2)cc1
7. N#Cc1ccnc(N2CCN(c3ncnc4scc(-c5ccccc5)c34)CC2)c1

1. > 10 µM
2. > 2 µM
3. > 11 µM
4. > 10 µM
5. 2.79 µM
6. 0.403 µM
7. > 10 µM

Take each entry in turn and give its IC50.
1. O=C(/C=C/c1cn(-c2ccccc2)nc1-c1cccnc1)Nc1nc(-c2ccccn2)cs1
2. O=C(N/N=C1/C(=O)c2cccc3cccc1c23)c1cccc(S(=O)(=O)N2CCCCC2)c1
3. O=C(COC(=O)c1ccc(-n2ncc(Cl)c(Cl)c2=O)cc1)Nc1ccc(F)cc1
4. Cn1ccnc1Sc1cnc(SCC(=O)c2ccc(Cl)cc2)nc1-c1ccccc1
5. CCOc1ccc(S(=O)(=O)N2c3ccccc3C(C(N)=O)CC2C)cc1OCC (centres undefined)
6. O=c1c2ccccc2cnn1-c1nc2ccccc2s1

["5.33 µM", "> 10 µM", "> 10 µM", "> 7.28 µM", "> 10 µM", "0.212 µM"]

----------
system: Plasmodium berghei; test: Luciferase/luciferin-expressing antifolate-resistant parasites were used to infect a culture of HepG2 cells that were pre-incubated with compounds. Infected hepatocytes emit light due to the luciferase reaction. Assay results are presented as the percent inhibition of light emission compared to control. […]; format: functional; conditions: sporozoite, read-out: LUCIFERASE INFECTION ASSAY - IC50
pIC50: −log10 of the molar value.
MEASURED_ATTRIBUTE: pIC50

Use the examples below as a reference point.
>>> assay_value("Cn1c2ccccc2c(=O)c2c(=O)n(CCc3ccccc3)c(-c3ccco3)nc21")
5.58
>>> assay_value("COc1ccc(N(CCC23CC4CC(CC(C4)C2)C3)S(=O)(=O)c2ccccc2)cc1")
"< 5.00"
>>> assay_value("CSc1sc(-c2ccon2)c(-c2ccccc2)c1C#N")
"< 4.95"
>>> assay_value("Cc1ccccc1CN1CCN(c2cc(=O)n3ccccc3n2)CC1")
5.19

Would you mind giving pIC50 for every compound in the list below?
1. CCCn1c(=O)n(C)c(=O)c2c(SCc3cc(=O)oc4cc(CC)ccc34)nc(C(C)(C)C)nc21
2. CO/N=C1\CC(C)(C)Cc2c(-c3ccn(C(=O)Nc4ccc(Cl)cc4)n3)sc(SC)c21
3. CS(=O)(=O)c1sc(NC(=O)Nc2ccccc2Cl)c2ccccc12

< 5.00
< 5.16
< 5.06

----------
system: Plasmodium berghei; test: Luciferase/luciferin-expressing antifolate-resistant parasites were used to infect a culture of HepG2 cells that were pre-incubated with compounds. Infected hepatocytes emit light due to the luciferase reaction. Assay results are presented as the percent inhibition of light emission compared to control. […]; assay type: functional; details: sporozoite, read-out: LUCIFERASE INFECTION ASSAY - IC90
For each record, write down the corresponding IC90.

>>> assay_value("FC(F)(F)Oc1cccc(-c2nc3ccnc(NCCc4ccccn4)c3[nH]2)c1")
"7.15 µM"
>>> assay_value("FC(F)(F)Oc1ccc(-c2ccc(OCc3ccccn3)nc2)cc1")
"> 9.53 µM"
>>> assay_value("CCc1cccc2c(C(=O)CN3CCC(C(=O)N4CCCCCC4)CC3)c[nH]c12")
"> 10 µM"
>>> assay_value("Cn1c(N)c(N2CCNCC2)c(=O)n(C)c1=O")
"> 10 µM"
>>> assay_value("CCCNC(=O)CN1CCN(c2nc(-c3cccs3)nc3sc(C)c(C)c23)CC1")
"> 10 µM"

Look up IC90 for the entries below, preserving their order.
1. O=S(=O)(Nc1ccc(Cl)cc1)c1cc(NC(=S)Nc2ccc(Oc3ccccc3)cc2)ccc1N1CCCCC1
2. CCCCNC(=O)c1c(NC(=O)c2ccc(F)cc2)nc2ccc(C)cn12
3. Cc1c(/N=c2\scc(-c3cc4ccccc4o3)n2/N=C/c2ccsc2)c(=O)n(-c2ccccc2)n1C

["> 10 µM", "3.28 µM", "4.03 µM"]
